Reference source for all entries: ChEMBL document CHEMBL1221291

assay_procedure: Cytotoxicity against human PBMC
Assay type: cell-based
Entries and their measured CC50 follow.
State the answer as a number, implicitly in µM.

Solved entries (count: 3):
1. C=CCN(C(=O)NCc1ccc(S(=O)(=O)N(C)C)cc1)[C@H]1C[C@H]2CC[C@@H](C1)N2C[C@H]1CN(C(=O)C2CCCC2)C[C@]1(O)c1cccc(F)c1 55
2. C=CCN(C(=O)NCc1ccc(C(F)(F)F)cc1)[C@H]1C[C@H]2CC[C@@H](C1)N2C[C@H]1CN(C(=O)C2CCCC2)C[C@]1(O)c1cccc(F)c1 12.5
3. C=CCN(C(=O)NCc1ccc(C(F)(F)F)cc1)[C@@H]1C[C@H]2CC[C@@H](C1)N2C[C@H]1CN(C(=O)C2CCCC2)C[C@]1(O)c1cccc(F)c1 103

Kindly review the next compound as well.
Field CC50 (entry C=CCN(C(=O)NCc1ccc(F)cc1)[C@H]1C[C@H]2CC[C@@H](C1)N2C[C@H]1CN(C(=O)C2CCCC2)C[C@]1(O)c1cccc(F)c1 ) reads 42
